assaySystem: pooled human IgG
property: Enzyme Activity Endpoint Assay (purified): Fc (ng/µL)

{"protein": "PRT-655 (protein) MQITSVWTKGVTPLTPEQFRYNNEDVIHAPYLAHQGWYDITKAFDGKDNLLCGAATAGNMLHWWFDQNKTEIEAYLSKHPEKQKIIFNNQELFDLKAAIDTKDSQTNSQLFNYFRDKAFPNLSARQLGVMPDLVLDMFINGYYLNVFKTQSTDVNRPYQDKDKRGGIFDAVFTRGDQTTLLTARHDLKNKGLNDISTIIKQELTEGRALALSHKTGNGGSSHVINLWGADFNAEGNLEAIYVTDSDANASIGMKKYFVGINAHGHVAISAKKIEGEDVGAQVLGLFTLSSGKDIWQKLSLEHHHHHH", "recordedResult": 0}
